Data origin: patent US20170145113A1

target: T1, His-tagged human HtrA1 protease domain (human, UniProt Q92743 161-367); experiment: BIACORE T200 SPR; Fab analyte over huHtrA1-PD-His captured by anti-His antibody
T1 construct: His-tagged protease domain; also called huHtrA1-PD-His; huHtrA1-PD
T1 sequence (Q92743 other isoform, or with tags, fused parts or gaps limits assumed): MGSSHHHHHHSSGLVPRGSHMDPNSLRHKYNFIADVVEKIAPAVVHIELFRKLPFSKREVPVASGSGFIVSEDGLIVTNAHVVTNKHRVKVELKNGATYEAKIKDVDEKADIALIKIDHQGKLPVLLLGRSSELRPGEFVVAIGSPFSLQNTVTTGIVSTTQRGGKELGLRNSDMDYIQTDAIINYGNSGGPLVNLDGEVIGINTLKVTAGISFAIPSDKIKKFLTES
Recorded pKd, one value per entry.
pKd here: minus log base 10 of the concentration, concentration in moles per litre.

# count of solved cases: 2
APEG.LC7.HC1 (Fab, V domains shown) VH: EVQLVQSGAEVKKPGASVKVSCKASGYTFKDSEMHWVRQAPGQGLEWIGGVDPETEGAAYNQKFKGRATITRDTSTSTAYLELSSLRSEDTAVYYCTRGYDYDYALDYWGQGTLVTVSS VL: DIQMTQSPSSLSASVGDRVTITCRASSSVNFIHWYQQKPGKAPKPLISATSNLASGVPSRFSGSGSGTDFTLTISSLQPEDFATYYCQQWYSAPWTFGQGTKVEIK; 9.86
h15H6.v2.APEG Fab (Fab, name in Kabat numbering, V domains shown, also called h15H6.v3; LC-N94A LC-P95 HC-D55E HC-G56) VH: EVQLVQSGAEVKKPGASVKVSCKASGYTFTDSEMHWVRQAPGQGLEWIGGVDPETEGAAYNQKFKGRATITRDTSTSTAYLELSSLRSEDTAVYYCTRGYDYDYALDYWGQGTLVTVSS VL: DIQMTQSPSSLSASVGDRVTITCRASSSVNFIHWYQQKPGKAPKPLISATSNLASGVPSRFSGSGSGTDFTLTISSLQPEDFATYYCQQWSSAPWTFGQGTKVEIK; 9.26

Now for another entry.
For the binder h15H6.v4 Fab (Fab, V domains shown, Tested as Fab; also called APEG.LC3.HC3; Fab15H6.v4) VH: EVQLVQSGAEVKKPGASVKVSCKASGYKFTDSEMHWVRQAPGQGLEWIGGVDPETEGAAYNQKFKGRATITRDTSTSTAYLELSSLRSEDTAVYYCTRGYDYDYALDYWGQGTLVTVSS VL: DIQMTQSPSSLSASVGDRVTITCRASSSVEFIHWYQQKPGKAPKPLISATSNLASGVPSRFSGSGSGTDFTLTISSLQPEDFATYYCQQWSSAPWTFGQGTKVEIK , report pKd.
9.97
